# Target or test system: UniProtKB P30613
# Measurement description: Live-cell NanoBRET assay in HEK293 cells
# Format: cell-based
# Parameters: host or cells: HEK293, transient transfection
# Condition summary: HEK293 transfected with PKLNluc, 2 h 37 °C, displacement control (20 µM mitapivat) subtracted; read-out: EC50 (cell), tracer titration, specific BRET signal
pEC50: −log10 of the molar value.
Result type: pEC50

- CN(C)c1ccc(S(=O)(=O)c2ccc3c(=O)n(Cc4cc[nH]n4)ncc3c2)c2nonc12 [Compound IV]: 7.74

###

# Target or test system: PKLNluc (Homo sapiens)
# Sequence (P30613 1-543 isoform P30613-2): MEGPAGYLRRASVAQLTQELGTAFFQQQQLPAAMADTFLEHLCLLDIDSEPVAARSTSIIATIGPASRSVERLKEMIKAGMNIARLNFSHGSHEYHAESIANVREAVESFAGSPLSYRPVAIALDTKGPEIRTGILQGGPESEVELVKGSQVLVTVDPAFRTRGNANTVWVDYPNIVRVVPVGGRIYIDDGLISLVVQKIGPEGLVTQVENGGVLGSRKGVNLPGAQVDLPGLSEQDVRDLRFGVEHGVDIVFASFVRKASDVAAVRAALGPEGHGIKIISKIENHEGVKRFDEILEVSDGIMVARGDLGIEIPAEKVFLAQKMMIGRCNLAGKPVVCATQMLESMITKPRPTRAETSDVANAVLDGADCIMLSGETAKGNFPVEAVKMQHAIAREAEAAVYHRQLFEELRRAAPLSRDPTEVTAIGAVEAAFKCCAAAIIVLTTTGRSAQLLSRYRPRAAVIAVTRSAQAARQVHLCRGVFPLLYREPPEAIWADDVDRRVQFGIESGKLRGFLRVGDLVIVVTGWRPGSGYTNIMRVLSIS
# Measurement description: Live-cell NanoBRET assay in HEK293 cells
# Assay type: cell-based
# Design: host or cells: HEK293, transient transfection
# Condition summary: 20 nM tracer IV, 2 h 37 °C, live HEK293, Figure 6a; read-out: EC50 displacement of tracer IV
Result type: EC50 (nM)

• Nc1cccc(S(=O)(=O)N2CCCN(S(=O)(=O)c3ccc4c(c3)OCCO4)CC2)c1 [DASA-58, reference compound] = 512
